assay_name: physchem
assay_conditions: octanol/water
Lab note: compare logP with 1, writing yes (1) if less and no (0) if equal or more.

Study these solved cases before continuing.
>>> answer_label("NS(=O)(=O)c1cccc(Cl)c1")
"no (0)"
>>> answer_label("CNc1ccc(S(N)(=O)=O)cc1")
"yes (1)"

Challenge: In plain terms, does `CC(=O)N(C)c1ccccc1` come in under 1 for logP?
Response given: no (0)

Challenge: In plain terms, does CNC(=O)Oc1ccc(C#N)cc1 [4-CYANOPHENYL METHYLCARBAMATE] come in under 1 for logP?
Response given: yes (1)

Challenge: In plain terms, does `Cc1cccc(S(N)(=O)=O)c1` come in under 1 for logP?
Response given: yes (1)

Challenge: In plain terms, does `O=C(O)COc1ccc(F)cc1` come in under 1 for logP?
Response given: no (0)

Challenge: In plain terms, does `COP(=O)(OC)Oc1ccccc1` come in under 1 for logP?
Response given: no (0)
